Data origin, for the record: the RNAGym collection of RNA variant scans (doi:10.1126/science.aae0568)

Readings of yeast fitness for the listed variants
B1: tRNA (parent)
chain: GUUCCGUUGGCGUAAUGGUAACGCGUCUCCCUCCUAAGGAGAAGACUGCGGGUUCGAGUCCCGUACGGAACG

Variants of: B1
Assay: yeast fitness relative to wild type (ratio to wild type); higher = fitter; tRNA-Arg(CCU), competitive growth, 37 C, YPD
This sample holds only a part of the variants without activity.
Reply with the value as a number alone.

GUUCCGUUGGCGUAAAGGUAACGUGUCUACCUCCUAAGGAGAAGACUGCGGGUUCGAGUCCCGUACGGAACG [U16A C24U C29A] | 0.57
GUUCCGUUGGCGUAAUGGUAACGCGUCUCCCUCCUAAGGAGACGACUGCGGGUUCGAGUCCCGUACGCAACG [A43C G68C] | 0.72
GUUACGUUGGCGUAAUGGAAACGCGUUUCCCUCCUAAGGAGAAGACUGCGGGUUCGAGUCCCGUACGGAACG [C4A U19A C27U] | 0.562
GUUCCGUUGGCGUAAUGGUAACGCGUCUCCCUCCUAAGGAGAAGACUGCGGGUUCGAGUCCUGUACGCGACG [C62U G68C A69G] | 0.567
GUUCCGUGGGCGUAAUGGUAACGGGUCUCCCUGCUUAGGAGAAGACUGGGGGUUCGAGUCCGGUAGGGCACG [U8G C24G C33G A36U C49G C62G C66G A69C] | 0.602

Ask: Quick one: yeast fitness of GUUCCGUUGGCGUAAUGGUAACGCGUCUCCGCCCUAAGGAGAAGACUGCGGGUUCGAGUCCCGUACGGAACG [C31G U32C] ?
Reply: 0.754

Ask: GUUCCGUUGGCGUAAUGGUAACGCGUCUCGGUCCUAACGAGAAGAGUGUGGGUUCGAGUCCCGUACGGAACG [C30G C31G G38C C46G C49U] , same question.
Reply: 0.532

Ask: GUUCCGUUGGCGUAAUGGUAACGCGUCUCCCUCCUAAGGAGAAGACUGCGGGUUCGCGUCCUGUACGCAACG [A57C C62U G68C] , same question.
Reply: 0.539

Ask: GUUCCUUUGGCGUAAUGGUAACGCGUCUCCCUCCUAAGGAGAAGACUGCGGGUUCGAGUCCCGUACGGAACG [G6U] , same question.
Reply: 0.918

Ask: GUUCCGUCGGCGUAAUGGUGACGCGUCUCCCUCGUAGGGAGAAAACUGCGGGUUCGAGUCCCGUACGGAACG [U8C A20G C34G A37G G44A] , same question.
Reply: 0.627

Ask: GUUCCGUUGGCGUAAUGGCAUCGCGUCUCCCUCCUAAGGAGAAGACUGCGGGUUCGAGUCCCGUACGGUACG [U19C A21U A69U] , same question.
Reply: 0.691

Ask: GUUCCGUUGGCGUAAUGGUAACGUGUCUCCCGCCUAAGGUGAAGACUGCGGGUUCGAGUCCCGUACGGAACG [C24U U32G A40U] , same question.
Reply: 0.513

Ask: GUUCCGUUGGCGUAUUGGUAACGCGUCUCCCUCCUAACGAGAAGACUGCGGGUUCGAGUCCCGUACGGAACG [A15U G38C] , same question.
Reply: 0.699

Ask: GUUGCGUUGGCGUAAUGGUCACGCGUCUCCCUCCUAAGGAGAAGACUGCGGGUGCGAGUCCCGUACGGAACG [C4G A20C U54G] , same question.
Reply: 0.529

Ask: GUUCCGGUGCCGUAAUGGUAACGCGUCUCCCUUCUAAGGAGAAGACUGCGGGGUCGAGUACCGUACGUCACG [U7G G10C C33U U53G C60A G68U A69C] , same question.
Reply: 0.776

Ask: GUUCCGUUGGCGUAAUGGUAACGCGUCUCCCUCCUAAGGCGAAGACUACGGGUUCGAGUGCCGUACGGAACG [A40C G48A C60G] , same question.
Reply: 0.683

Ask: GUUCCGUUGGCGUAAUGGUAACGCGUCUCCCUCCUAAGGAGAAGACUGCGGGAUCGAGUCCCGUAUGGAACG [U53A C66U] , same question.
Reply: 0.709

Ask: GUUCGGUUGGCGUAAUGGUAACGCGUCUCCCUCCUAAGGAGAAGACUGCGGGUUCGAGUCCCGUCCGAAACG [C5G A65C G68A] , same question.
Reply: 0.671

Ask: GUUCCGUUGGCGUAAUGGUACCGCGUCUCCCUCCUAAGGAGAAGACUGCGGGUUCGAGUCCCGUACGAAACG [A21C G68A] , same question.
Reply: 0.799

Ask: GUUCCGUUGGCGUAAUGGUAACGCGUCUCCCUCCUAAGGAGAAGACUGCGGGUACGAGUCCAGUACGGAACG [U54A C62A] , same question.
Reply: 0.595

Ask: GUUCCGUUGGCGUAAUGGUAACGCGUCUCCCUCCUAAGGAGAAGACUGCGGAUUCGAGUUCCGUACGGAACG [G52A C60U] , same question.
Reply: 0.579

Ask: GUUCGGUUGGCGUCAUGAUAACGCGUCUCCCUCCUAAGGAGAGGCUUGCGGGUUCGAGUCCCGUACGGAACG [C5G A14C G18A A43G A45C C46U] , same question.
Reply: 0.579
